Quick reference: IC50 of the listed items.
# studyTarget: Virion infectivity factor (Human immunodeficiency virus type 1 group M subtype B (isolate BH10)) + Virion infectivity factor (Human immunodeficiency virus type 1 group M subtype B (isolate BRU/LAI)) + Virion infectivity factor (Human immunodeficiency virus type 1 group M subtype B (isolate PCV12)) + Virion infectivity factor (Human immunodeficiency virus type 1 group M subtype B (isolate HXB2)) + DNA dC->dU-editing enzyme APOBEC-3G (Homo sapiens) (UniProt P69720+P69721+P69722+P69723+Q9HC16)
# testProtocol: HIV-1 Vif–A3G interaction blockers – biochemical, TR-FRET, GST-Vif 1-94, biotin-A3G peptide, dose response retest, primary screen (AID 1117319);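 note: Vif residues 1-94 fused to GST binding biotinylated APOBEC3G peptide 110-148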
# testContext: TR-FRET GST-Vif / biotin-A3G peptide binding
Results filed as inconclusive are left out.
readout: IC50

>>> assayvalue("CNCc1ccccc1Sc1ccc(O)c(O)c1")
"2.64 µM"
>>> assayvalue("CCNC(=O)COC(=O)c1cc(-c2ccco2)nc2ccccc12")
"3.93 µM"
>>> assayvalue("Cc1ccc(/C=C/C(=O)Nc2ncc(C)s2)o1")
"7.07 µM"
>>> assayvalue("COc1ccc(S(=O)(=O)c2c(N)n(Cc3ccco3)c3nc4ccccc4nc23)cc1")
"3.47 µM"
>>> assayvalue("O=C1C2CCCN2C(c2ccc(Cl)cc2)N1c1ccccn1 (stereo unspecified)")
"84.7 µM"
>>> assayvalue("COCCn1nnnc1C(c1cc2cc(OC)c(OC)cc2[nH]c1=O)N1CCN(c2ccc(O)cc2)CC1 (stereo unspecified)")
"4.8 µM"
>>> assayvalue("COc1ccc(NC(=S)NCCc2ccccc2OC)c(OC)c1")
"7.02 µM"
>>> assayvalue("Cc1cc(C)c(S(=O)(=O)N2CCCCC2)c(C)c1N(C)S(=O)(=O)c1ccc(Cl)cc1")
"13.2 µM"
>>> assayvalue("O=C(NCCc1ccccc1)c1ccc2nc(-c3ccco3)c(-c3ccco3)nc2c1")
"3.01 µM"
>>> assayvalue("COc1ccc(OC)c(Nc2nc(-c3ccc(O)c(O)c3)cs2)c1")
"4.19 µM"
>>> assayvalue("CCOC(=O)C1CCN(Cc2cnc(Oc3ccc(OC)cc3)s2)CC1")
"80.9 µM"

###

# studyTarget: Virion infectivity factor (Human immunodeficiency virus type 1 group M subtype B (isolate BH10)) + Virion infectivity factor (Human immunodeficiency virus type 1 group M subtype B (isolate BRU/LAI)) + Virion infectivity factor (Human immunodeficiency virus type 1 group M subtype B (isolate PCV12)) + Virion infectivity factor (Human immunodeficiency virus type 1 group M subtype B (isolate HXB2)) + DNA dC->dU-editing enzyme APOBEC-3G (Homo sapiens) (UniProt P69720+P69721+P69722+P69723+Q9HC16)
# testProtocol: HIV-1 Vif–A3G interaction blockers – biochemical, TR-FRET, GST-Vif 1-94, biotin-A3G peptide, dose response retest, primary screen (AID 1117319);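 note: Vif residues 1-94 fused to GST binding biotinylated APOBEC3G peptide 110-148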
# testContext: TR-FRET GST-Vif / biotin-A3G peptide binding
Inconclusive results are not listed.
Quick reference: IC50 of the listed items.
readout: IC50

>>> assayvalue("C=C(C)C(=O)Nc1cccc(C2=NOC3(C2)C[C@@H](C(N)=O)N(C(=O)c2cc([N+](=O)[O-])cc([N+](=O)[O-])c2)C3)c1 (some centres undefined)")
"4.69 µM"
>>> assayvalue("Cc1ccc(C)n1-c1sccc1C(=O)O")
"1.92 µM"
>>> assayvalue("CCn1c(SCC(=O)Nc2cc(C)on2)nnc1-c1cccnc1")
"9.51 µM"
>>> assayvalue("COc1cccc(-n2c(/C=C/c3ccc(O)c(O)c3)nc3ccccc3c2=O)c1")
"10.7 µM"
>>> assayvalue("O=C(CN1C(=O)NC2(CCCCCCC2)C1=O)NCc1ccc2c(c1)OCO2")
"99.2 µM"
>>> assayvalue("O=C(COc1ccccc1Cl)c1ccc[nH]1")
"2.91 µM"
>>> assayvalue("COC1=CC(=O)C(C2CC(=O)c3c(O)cc(O)cc3O2)=CC1=O (centres undefined)")
"15 µM"
>>> assayvalue("O=C1NC(=S)N/C1=C/c1ccc(-c2c(Br)cc([N+](=O)[O-])cc2Br)o1")
"39 µM"
>>> assayvalue("CC(=O)c1ccc(NC(=O)CSc2nnc(-c3ccco3)c(-c3ccco3)n2)cc1")
"3.91 µM"
>>> assayvalue("CNC[C@H](O)c1ccc(O)c(O)c1")
"1.16 µM"
>>> assayvalue("CCOC(=O)C1=C(O)/C(=C/c2ccc(CNC(=O)C(=O)Nc3ccc(C)cc3)o2)N=C1C")
"33.3 µM"
>>> assayvalue("O=C(COC(=O)c1cc(-c2ccco2)nc2ccccc12)NCc1ccc2c(c1)OCO2")
"12.5 µM"
>>> assayvalue("Cc1cc(C(=O)CCl)c(C)n1-c1c(C)n(C)n(-c2ccccc2)c1=O")
"42.8 µM"
>>> assayvalue("O=C1CCCC(O)=C1C=Nc1ccc(O)cc1")
"35.4 µM"
>>> assayvalue("CC1=C(C(=O)Nc2ccccc2)C(c2ccc(C)o2)n2c(s/c(=C\\c3ccco3)c2=O)=N1 (centres undefined)")
"5.34 µM"
>>> assayvalue("O=[N+]([O-])c1cc(/C=N\\Nc2nccs2)ccc1O")
"1.62 µM"
>>> assayvalue("CCC(c1ccc(O)c(O)c1)C(CC)c1ccc(O)c(O)c1 (centres undefined)")
"6.46 µM"
>>> assayvalue("CC(=O)N1CCN(c2ccc(NCc3ccc4c(c3)OCO4)cc2)CC1")
"3.78 µM"
>>> assayvalue("NC(CO)C(=O)NNCc1ccc(O)c(O)c1O (centres undefined)")
"1.49 µM"
>>> assayvalue("Cc1cc(-c2ccco2)n(-c2ccccc2)n1")
"50.4 µM"
>>> assayvalue("Cc1ccc(-n2c(-c3cc(-c4ccco4)[nH]n3)n[nH]c2=S)c(Br)c1")
"6.39 µM"
>>> assayvalue("O=C(O)C1=NN(c2cc(Cl)c(S(=O)(=O)O)cc2Cl)C(=O)C1")
"85.7 µM"
>>> assayvalue("O=C1[C@@H]2C(Cc3ccc(O)cc3)NC3(C(=O)Nc4ccc(F)cc43)[C@@H]2C(=O)N1c1ccc(F)cc1 (some centres undefined)")
"64.5 µM"
>>> assayvalue("O=c1cc(-c2ccc(O)cc2)oc2c(O)c(O)c(O)c(O)c12")
"22.1 µM"
>>> assayvalue("COc1ccc2nc(NNC(=O)c3cc(=O)c4ccccc4o3)sc2c1")
"26.8 µM"
>>> assayvalue("Cc1cc(C(=O)Nc2sc3c(c2C#N)CCCCC3)cs1")
"95.9 µM"
>>> assayvalue("S=c1[nH]nc(-c2cccnc2)n1/N=C/C=C/c1ccco1")
"3.97 µM"
>>> assayvalue("CS(=O)(=O)N(CC(=O)Nc1ccc2c(c1)OCO2)Cc1ccccc1")
"94.7 µM"
>>> assayvalue("N#Cc1c(-c2ccco2)cc(-c2ccccc2)[nH]c1=O")
"14 µM"
>>> assayvalue("Cc1cccc2c1c1ccc3c(c1n2C)C(=O)C=CC3=O")
"7.63 µM"
>>> assayvalue("Nc1nc(-c2ccco2)c(-c2ccco2)s1")
"0.83 µM"
>>> assayvalue("Cc1cccc(N2C(=O)/C(=C/c3ccc(CN(CCC#N)S(C)(=O)=O)o3)C(=O)NC2=S)c1")
"22.9 µM"
>>> assayvalue("CCNc1ccc(Br)cc(C(=O)/C=C/c2ccc(Cl)cc2)c1=O")
"7.05 µM"
>>> assayvalue("Cc1cnc(NC(=O)CSc2nnc(CNc3ccc(F)cc3)n2CC2CCCO2)s1 (centres undefined)")
"53 µM"
>>> assayvalue("COc1ccc(O)c(N)c1")
"0.93 µM"
>>> assayvalue("CC(=O)Nc1ccc(S(=O)(=O)Nc2nc3ccccc3nc2Nc2ccc(C(=O)O)c(O)c2)cc1")
"17.4 µM"
>>> assayvalue("CCc1noc(N)c1C(=O)Nc1ccc(F)c(Cl)c1")
"74.6 µM"
>>> assayvalue("O=C(/C=C/c1ccc(O)c(O)c1)c1ccc(S(=O)(=O)N2CCCCCC2)cc1")
"2.29 µM"
>>> assayvalue("CCCCCC#CCC#CCC#CCC#CCCCC(=O)O")
"0.86 µM"
>>> assayvalue("c1ccc2c3c([nH]c2c1)CNCC3")
"84.2 µM"
>>> assayvalue("Cc1ccc(/C=C/C(=O)Nc2cccc(S(=O)(=O)N3CCOCC3)c2)o1")
"20.9 µM"
>>> assayvalue("O=C(Nc1ccc(F)cc1)C(c1ccccc1)N1CCN(S(=O)(=O)c2ccc3ccccc3c2)CC1 (centres undefined)")
"13.5 µM"
>>> assayvalue("COc1ccc(OC)c(NC(=O)CCN2CCC(C)CC2)c1")
"25.4 µM"
>>> assayvalue("Oc1ccc(/C=N/NP(=S)(c2ccccc2)c2ccccc2)c(O)c1O")
"17.6 µM"
